Entry source: ChEMBL document CHEMBL1130684

- STUDY SYSTEM: Protein farnesyltransferase (Homo sapiens, UniProt P49354+P49356)
- ASSAY NAME: Inhibition of FTase-catalyzed incorporation of [3H]- FPP radioligand into recombinant Ha-Ras by 50% at an enzyme concentration of 1 nM.
- Format: protein-complex assay
pIC50: −log10 of the molar value.
RECORDED METRIC: pIC50

Solved cases (5 shown):
CCC(C)[C@@H](CN(CC(=O)N[C@@H](CCSC)C(=O)O)Cc1cccc2ccccc12)NC(=O)CSCc1ccccc1 (stereo not given in full) : 7.44
CCC(C)[C@@H](CN(CC(=O)N[C@@H](CCSC)C(=O)O)Cc1cccc2ccccc12)NC(=O)CN(Cc1ccccc1)C(=O)OC(C)(C)C (stereo not given in full) : 6.59
CCC(C)[C@@H](CN(CC(=O)N[C@@H](CCSC)C(=O)O)Cc1cccc2ccccc12)NC(=O)CSCc1ccc(C#N)cc1 (stereo not given in full) : 8.27
CCC(C)[C@@H](CN(CC(=O)N[C@@H](CCSC)C(=O)O)Cc1cccc2ccccc12)NC(=O)CNCc1ccccc1 (stereo not given in full) : 6.72
CCC(C)[C@@H](CN(CC(=O)N[C@@H](CCSC)C(=O)O)Cc1cccc2ccccc12)NC(=O)CCCCc1ccccc1 (stereo not given in full) : 6.64

(a) CCC(C)[C@@H](CN(CC(=O)N[C@@H](CCSC)C(=O)O)Cc1cccc2ccccc12)NC(=O)COCc1ccccc1 (stereo not given in full)
(b) CCC(C)[C@@H](CN(CC(=O)N[C@@H](CCSC)C(=O)O)Cc1cccc2ccccc12)NC(=O)CN(Cc1ccccc1)C(C)=O (stereo not given in full)
**Q:** Identify the item whose pIC50 is the smaller number: a or b Response format: the label of the selected entry.
**A:** a

(A) CCC(C)[C@@H](CN(CC(=O)N[C@@H](CCSC)C(=O)O)Cc1cccc2ccccc12)NC(=O)CSCc1ccc([N+](=O)[O-])cc1 (stereo not given in full)
(B) CCC(C)[C@@H](CN(CC(=O)N[C@@H](CCSC)C(=O)O)Cc1cccc2ccccc12)NC(=O)CSCc1ccc(C)cc1 (stereo not given in full)
**Q:** Lab notebook, comparison: A versus B , higher pIC50 goes to which? Response format: the label of the selected entry.
**A:** A

(1) CCC(C)[C@@H](CN(CC(=O)N[C@@H](CCSC)C(=O)O)Cc1cccc2ccccc12)NC(=O)CSCc1ccc(S(C)(=O)=O)cc1 (stereo not given in full)
(2) CCC(C)[C@@H](CN(CC(=O)N[C@@H](CCSC)C(=O)O)Cc1cccc2ccccc12)NC(=O)CSCc1ccccc1[N+](=O)[O-] (stereo not given in full)
**Q:** Lab notebook, comparison: 1 versus 2 , higher pIC50 goes to which? Response format: the label of the selected entry.
**A:** 1
(1: 7.80, 2: 7.07)

---

- STUDY SYSTEM: Protein farnesyltransferase (Homo sapiens, UniProt P49354+P49356)
- ASSAY NAME: Inhibition of FTase-catalyzed incorporation of [3H]- FPP radioligand into recombinant Ha-Ras by 50% at an enzyme concentration of 1 nM.
- Format: protein-complex assay
pIC50: −log10 of the molar value.
RECORDED METRIC: pIC50

CCC(C)[C@@H](CN(CC(=O)N[C@@H](CCSC)C(=O)O)Cc1cccc2ccccc12)NC(=O)CSCc1ccc(C(F)(F)F)cc1 (some centres undefined) : 7.43

(1) CCC(C)[C@@H](CN(CC(=O)N[C@@H](CCSC)C(=O)O)Cc1cccc2ccccc12)NC(=O)C[S+]([O-])Cc1ccccc1 (some centres undefined)
(2) CCC(C)[C@@H](CN(CC(=O)N[C@@H](CCSC)C(=O)O)Cc1cccc2ccccc12)NC(=O)CS(=O)(=O)Cc1ccccc1 (some centres undefined)
**Q:** Identify the item whose pIC50 is the smaller number: 1 or 2 Response format: the label of the selected entry.
**A:** 2
(2: 6.51, 1: 6.80)

---

- STUDY SYSTEM: Protein farnesyltransferase (Homo sapiens, UniProt P49354+P49356)
- ASSAY NAME: Inhibition of FTase-catalyzed incorporation of [3H]- FPP radioligand into recombinant Ha-Ras by 50% at an enzyme concentration of 1 nM.
- Type: protein-complex assay
pIC50: −log10 of the molar value.
RECORDED METRIC: pIC50

Solved cases (2 shown):
CCC(C)[C@@H](CN(CC(=O)N[C@@H](CCSC)C(=O)O)Cc1cccc2ccccc12)NC(=O)CSCCc1ccccc1 (some centres not stated) : 6.92
CCC(C)[C@@H](CN(CC(=O)N[C@@H](CCSC)C(=O)O)Cc1cccc2ccccc12)NC(=O)CSCc1ccncc1 (some centres not stated) : 6.64

(1) CCC(C)[C@@H](CN(CC(=O)N[C@@H](CCSC)C(=O)O)Cc1cccc2ccccc12)NC(=O)CSc1ccccc1 (some centres not stated)
(2) CCC(C)[C@@H](CN(CC(=O)N[C@@H](CCSC)C(=O)O)Cc1cccc2ccccc12)NCc1cnc[nH]1 (some centres not stated)
**Q:** Lab notebook, comparison: 1 versus 2 , higher pIC50 goes to which? Response format: the label of the selected entry.
**A:** 2
(2: 7.51, 1: 7.29)

---

- STUDY SYSTEM: Protein farnesyltransferase (Homo sapiens, UniProt P49354+P49356)
- ASSAY NAME: Inhibition of FTase-catalyzed incorporation of [3H]- FPP radioligand into recombinant Ha-Ras by 50% at an enzyme concentration of 1 nM.
- Format: protein-complex assay
pIC50: −log10 of the molar value.
RECORDED METRIC: pIC50

CCC(C)[C@@H](CN(CC(=O)N[C@@H](CCSC)C(=O)O)Cc1cccc2ccccc12)NC(=O)CSc1ccncc1 (some centres undefined) : 7.77
CCC(C)[C@@H](CN(CC(=O)N[C@@H](CCSC)C(=O)O)Cc1cccc2ccccc12)NC(=O)CSCc1ccc(OC)cc1 (some centres undefined) : 7.77

---

- STUDY SYSTEM: Protein farnesyltransferase (Homo sapiens, UniProt P49354+P49356)
- ASSAY NAME: Inhibition of FTase-catalyzed incorporation of [3H]- FPP radioligand into recombinant Ha-Ras by 50% at an enzyme concentration of 1 nM.
- Format: protein-complex assay
RECORDED METRIC: IC50 (nM)

CCC(C)[C@@H](CN(CC(=O)N[C@@H](CCSC)C(=O)O)Cc1cccc2ccccc12)NC(=O)CSCc1ccc(-c2ccccc2)cc1 (stereo partly drawn) : 29
CCC(C)[C@@H](CN(CC(=O)N[C@@H](CCSC)C(=O)O)Cc1cccc2ccccc12)NC(=O)CCCc1ccc([N+](=O)[O-])cc1 (stereo partly drawn) : 19
CCC(C)[C@@H](CN(CC(=O)N[C@@H](CCSC)C(=O)O)Cc1cccc2ccccc12)NC(=O)CSCc1cccc([N+](=O)[O-])c1 (stereo partly drawn) : 23
